TESTED_SYSTEM: human Cereblon WT GST-tagged protein (Homo sapiens)
Construct: purchased CISBIO 64BDCRBNPEH
Sequence (Q96SW2 whole entry): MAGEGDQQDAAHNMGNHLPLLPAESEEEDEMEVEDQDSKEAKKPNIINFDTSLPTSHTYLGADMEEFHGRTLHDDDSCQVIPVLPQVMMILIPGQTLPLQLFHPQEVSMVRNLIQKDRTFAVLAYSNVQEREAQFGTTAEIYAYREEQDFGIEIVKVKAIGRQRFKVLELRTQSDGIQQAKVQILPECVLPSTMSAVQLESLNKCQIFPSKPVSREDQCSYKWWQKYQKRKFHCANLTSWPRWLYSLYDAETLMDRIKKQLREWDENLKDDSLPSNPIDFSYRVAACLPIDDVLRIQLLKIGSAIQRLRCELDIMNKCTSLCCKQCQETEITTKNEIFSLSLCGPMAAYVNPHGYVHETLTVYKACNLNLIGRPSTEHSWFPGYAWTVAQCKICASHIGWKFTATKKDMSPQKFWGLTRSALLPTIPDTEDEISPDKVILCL
PROCEDURE_DETAILS: CRBN-binding affinity, HTRF (CEREBLON BINDING kit)
EXPERIMENTAL_SETUP: read-out: Inhibition Rate at 2 µM (%)
From the text: The CEREBLON BINDING kits (specification: 10,000 tests; product number: Catalog # 64BDCRBNPEH; CISBIO company) was used to determine the CRBN binding ability of the compounds to be tested through a HTRF method (homogeneous time-resolved fluorescence). The specific methods are as follows: • 1. […] Specifically, diluent #9 (1X) solution was used as the diluent, and multiple concentration gradients were set. […]
inhibition at 2 µM values by entry

Consider the worked cases shown below.
COc1cc(N2CCC(N3CCN(Cc4ccc5c(c4)CN(C4CCC(=O)NC4=O)C5=S)CC3)CC2)ccc1Nc1ncc(Cl)c(Nc2ccccc2P(C)(C)=O)n1 (stereo not drawn) [GT-09425] : 80 to 100%
O=C1CCC(N2Cc3cc(CN4CCN(c5ccn6c(n5)nc5ccccc56)CC4)ccc3C2=S)C(=O)N1 (stereo not drawn) [GT-08981] : 80 to 100%
CC1(C)CCC(c2ccc(Cl)cc2)=C(CN2CCN(c3ccc(C(=O)NS(=O)(=O)c4ccc(N[C@H](CCN5CCN(Cc6ccc7c(c6)CN(C6CCC(=O)NC6=O)C7=S)CC5)CSc5ccccc5)c(S(=O)(=O)C(F)(F)F)c4)cc3)CC2)C1 (stereo partly drawn) [GT-09415] : 80 to 100%
O=C1CCC(N2Cc3cc(CN4CCN(c5ncc(C(=O)Nc6ccc(OC(F)(F)Cl)cc6)cc5-c5cc[nH]n5)CC4)ccc3C2=S)C(=O)N1 (stereo not drawn) [GT-08769] : 80 to 100%
O=C1CCC(N2Cc3cc(CN4CCN(c5ccc6c(c5)nc(NC(=O)c5cccc(C(F)(F)F)c5)n6[C@H]5CC[C@@H](CO)CC5)CC4)ccc3C2=S)C(=O)N1 (relative stereo) [GT-05293] : 60 to 80%

As a next step, examine the compound that follows.
Ask: Checklist item: inhibition at 2 µM tested on human Cereblon WT GST-tagged protein (Homo sapiens), entry O=C1CCC(N2Cc3c(CN4CCN(C5CCN(c6ncc(C(=O)Nc7ccc(OC(F)(F)Cl)cc7)cc6-c6cc[nH]n6)CC5)CC4)cccc3C2=S)C(=O)N1 (stereo not drawn) [GT-08776] , value?
Reply: 60 to 80%

These data points were gathered from patent EP4745138A1.
